biological target: catalytic domain of human neutrophil collagenase (MMP-8) (Homo sapiens, UniProt P22894); construct: catalytic domains of human stromelysin (MMP-3) and neutrophil collagenase (MMP-8); test: enzymatic activity of the catalytic domain of human neutrophil collagenase (MMP-8); settings: fluorogenic substrate, pH 7.5
Sequence (P22894 100-262 limits assumed): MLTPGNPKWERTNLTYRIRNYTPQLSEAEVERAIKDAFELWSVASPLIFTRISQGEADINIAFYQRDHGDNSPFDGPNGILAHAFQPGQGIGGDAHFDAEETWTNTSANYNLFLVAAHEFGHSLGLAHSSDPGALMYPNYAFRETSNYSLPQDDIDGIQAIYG
measurement_type: pIC50
Would you please state pIC50, meaning minus log10 of the concentration in mol/L, as a bare number?

Ask: Return the recorded pIC50 value; entry: O=C(NO)C1c2c(sc3ccccc23)C(O)CN1S(=O)(=O)c1ccc(-c2ccc(Cl)cc2)cc1 (stereo not shown)
Reply: 7.89

* * *

biological target: catalytic domain of human collagenase-3 (MMP-13) (Homo sapiens, UniProt P45452)
measurement_type: IC50 (nM)
Your answer should be a plain number; it is taken to be in nM.

Ask: Identify IC50 associated with the molecule O=C(NO)C1c2c(sc3ccccc23)C(O)CN1S(=O)(=O)c1ccc(-c2ccc(Cl)cc2)cc1 (stereo not shown)
Reply: 6.3

* * *

target: catalytic domain of human stromelysin (MMP-3) (Homo sapiens, UniProt P08254); construct: catalytic domains of human stromelysin (MMP-3) and neutrophil collagenase (MMP-8); test: enzymatic activity of the catalytic domain of human stromelysin (MMP-3); settings: fluorogenic substrate, pH 7.5
Sequence (P08254 100-272 limits assumed): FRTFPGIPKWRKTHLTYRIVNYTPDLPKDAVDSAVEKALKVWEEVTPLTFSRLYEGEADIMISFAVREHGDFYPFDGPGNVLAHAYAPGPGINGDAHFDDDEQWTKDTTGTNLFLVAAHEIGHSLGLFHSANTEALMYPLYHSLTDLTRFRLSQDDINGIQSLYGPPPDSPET
measurement_type: pIC50
Quick note: pIC50 values are minus log10 of concentrations in mol/L.

Ask: Determine from records and report pIC50 for O=C(NO)C1c2c(sc3ccccc23)C(O)CN1S(=O)(=O)c1ccc(-c2ccc(Cl)cc2)cc1 (stereo not shown) [Example 1]
Reply: 7.15

* * *

Target: catalytic domain of human collagenase-1 (MMP-1) (Homo sapiens)
Sequence (P03956 100-269 limits assumed): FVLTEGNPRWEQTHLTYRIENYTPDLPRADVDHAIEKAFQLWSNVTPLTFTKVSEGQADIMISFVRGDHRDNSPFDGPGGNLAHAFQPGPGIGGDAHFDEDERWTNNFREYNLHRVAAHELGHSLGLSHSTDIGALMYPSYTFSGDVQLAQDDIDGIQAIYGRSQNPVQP
measurement_type: pIC50
pIC50 is defined as minus the log10 of a concentration measured in mol/L.

Ask: Identify pIC50 associated with the molecule O=C(NO)C1c2c(sc3ccccc23)C(O)CN1S(=O)(=O)c1ccc(-c2ccc(Cl)cc2)cc1 (stereo not shown)
Reply: 6.15
